- Tested on: SK-MEL-2
- EXPERIMENT NOTES: NCI tumour cell line growth inhibition, 48 h
Calls of active or inactive are those of the source. Rule as the data show it: active = GI50 up to about 1.1 µM and inactive = higher.
Classes to choose from: active, inactive

O=C(ON=C1c2ccccc2C(Br)C(Br)c2ccccc21)c1cc([N+](=O)[O-])cc([N+](=O)[O-])c1 (configuration not stated)
inactive
COc1ccc(OC)c2c1C[C@@H]1C(C#N)N3[C@H](Cc4c(OC)ccc(OC)c4[C@@H]3C)C(=O)N1[C@H]2C (some centres not stated)
inactive
CCCCCn1cc2c3c(cccc31)C1C=C(C)CN(C)[C@@H]1C2.Cc1ccc(C(=O)OC(C(=O)O)C(OC(=O)c2ccc(C)cc2)C(=O)O)cc1 (configuration not stated)
inactive
Cc1ccc([N+](=O)[O-])cc1S(=O)(=O)Nc1ccc(C2=NNC(c3ccccc3O)C2)cc1 (configuration not stated)
inactive
CCOc1cc2c(cc1O)CC[C@@H]1[C@@H]2CC[C@]2(C)C(OS(=O)OC3CC[C@@H]4[C@H]5CCc6cc(O)c(OCC)cc6[C@@H]5CC[C@@]34C)CC[C@@H]12 (some centres not stated)
active
COc1cc(/C=C/c2csnn2)cc(OC)c1OC
inactive

Continue with the compound presented below.
query: Which outcome was entered for the compound CC(C)(C)C(=O)ON1N=NC2C3CC(OCc4ccccc4)(OCc4ccccc4)C(O3)C21 (configuration not stated) in this test?
result: inactive

---

- Tested on: HOP-92
- EXPERIMENT NOTES: NCI tumour cell line growth inhibition, 48 h
Calls of active or inactive are those of the source. Cut-off read from the data, not from the text of the source: active = GI50 up to about 1.1 µM and inactive = higher.
PARAMETER MEASURED: GI50

CCOC(=O)CNC(=O)OCc1ccccc1
> 100 µM (inactive)
C=C1CC[C@H](O)C(C)(C)[C@@H]1CC/C(C)=C/CC/C=C(\C)CC/C=C(\C)CCC=C(C)C
> 100 µM (inactive)
O=C1c2ccccc2-c2nc(-c3cccc([N+](=O)[O-])c3)nnc21
> 100 µM (inactive)
NCCCSCC(=O)O
> 100 µM (inactive)
C/C(=N\NC(=S)Nc1ccc(Cl)cc1)c1nc2cccnc2[nH]1
1.27 µM (inactive)

query: Give GI50; test system HOP-92; molecule Cc1ccc(C(=O)C(Cl)C(Cl)c2ccc(C)cc2)cc1 (stereo not drawn)
result: 2.4 µM (inactive)

query: Fill in: GI50 on HOP-92, entry O=c1c2ccccc2n2c(-c3ccccc3O)nnc2n1-c1ccccc1
result: > 100 µM (inactive)

query: Param request: GI50 | system HOP-92 | item Cc1ncc([N+](=O)[O-])n1CCNCCCCn1ccnc1[N+](=O)[O-]
result: > 100 µM (inactive)

---

- Test system: SK-MEL-2
- EXPERIMENT NOTES: NCI tumour cell line growth inhibition, 48 h
The source made the active and inactive calls. Rule as the data show it: active = GI50 up to about 1.1 µM and inactive = higher.
PARAMETER MEASURED: GI50

O=C(CCCCCCCCCCc1ccccc1)C1=C(O)CC(O)CC1=O (stereo unspecified)
25.4 µM (inactive)
C1=C(c2ccccc2)NC2=N[C@H]3CCCC[C@@H]3N2C1c1ccccc1 (stereo partly specified)
17.8 µM (inactive)
COc1ccc2[nH]c3c(c2c1)CC(=S)N1CCCC(CC3=O)C1 (stereo unspecified)
29.3 µM (inactive)
C/C(=N\NC(N)=S)c1sc(-n2nc(-c3ccccc3)cc2-c2ccccc2)nc1C
> 100 µM (inactive)
Oc1cc(/C=C/c2ccccc2)nc2cc3c(cc12)OCO3
3.72 µM (inactive)
O=C(CCc1cccc(O)c1)NCCc1ccc(O)cc1
> 100 µM (inactive)

query: Please report GI50 with SK-MEL-2 for item CC(=O)SC(C[N+](=O)[O-])c1ccccc1 (stereo unspecified) .
result: 19.8 µM (inactive)

query: Give GI50 for this entry on SK-MEL-2: O=C(CSCC(=O)N/N=C/c1cccc(O)c1)N/N=C/c1cccc(O)c1
result: > 100 µM (inactive)

---

- Tested on: Hs-578T
- EXPERIMENT NOTES: NCI tumour cell line growth inhibition, 48 h
Activity calls are given as the source filed them. No stated cut-off is given here; in the data, active = GI50 up to about 1.1 µM and inactive = higher. Square brackets hold non-standard residues; d marks the D form. Peptide text beside a SMILES is read from it. * marks the point of attachment. ξ: configuration not given here. ξW = NC(Cc1c[nH]c2ccccc12)C(=O)O; X29 = O=C(O)[C@H]1CCC[C@H]1N*; ξF = NC(Cc1ccccc1)C(=O)O; Boc = CC(C)(C)OC(=O)*; ξK = NCCCCC(N)C(=O)O; ξT = CC(O)C(N)C(=O)O; tBu = CC(C)(C)*
Below: a set of entries, each annotated with reported GI50.

CC12CC3OC(=O)C1COC14OC5(C2C1=O)C(O)(CCC1C4CC2OC24CC=CC(=O)C14C)C(=O)OC35C (stereo not drawn)
> 100 µM (inactive)
C[C@H](NC1=CC(=O)C(N[C@@H](C)[C@H](O)c2ccccc2)=CC1=O)[C@H](O)c1ccccc1
37.2 µM (inactive)
CC(OC(C)(C)C)C(NC(=O)C(CCCCNC(=O)OC(C)(C)C)NC(=O)C(Cc1c[nH]c2ccccc12)NC(=O)C(N)Cc1ccccc1)C(=O)NC(Cc1ccccc1)C(=O)N[C@@H]1CCC[C@@H]1C(=O)O (stereo partly drawn) (H-[ξF][ξW][ξK](Boc)[ξT](tBu)[ξF]-X29)
19.9 µM (inactive)
O=C(c1cccnc1)N1N=C(c2ccccc2)CC1(O)c1cc(F)c(Cl)cc1Cl (stereo not drawn)
27 µM (inactive)
COc1cccc2c1CCc1c(-c3ccc(F)cc3)cc(-c3ccc4ccccc4n3)nc1-2
> 100 µM (inactive)
Cc1ccc(Nc2nc(O)c3[nH]cnc3n2)cc1CO
21.2 µM (inactive)
CCCCCCCCCCCCCOCCOCCOCCCCC(O)CCCCCCCCCC1=C[C@H](C)OC1=O (stereo partly drawn)
14.9 µM (inactive)

Next, consider the following compound.
query: Give the reported GI50 for this compound. CC(Cn1c2c(c3cc(O)ccc31)CCc1ccc(O)cc1-2)N(C)C (stereo not drawn)
result: 17.1 µM (inactive)

---

- Test system: NCI-H460
- EXPERIMENT NOTES: NCI tumour cell line growth inhibition, 48 h
The source made the active and inactive calls. Cut-off read from the data, not from the text of the source: active = GI50 up to about 1.1 µM and inactive = higher.
Assign a class; possible classes are active, inactive

A selection of reference data follows.
Cc1cc(C)c(NC(=S)NC(=O)c2ccccc2)cc1C
inactive
CN(C)/C=N\c1ccn(CCO)c(=O)n1
inactive

query: Record lookup: outcome of this test for O=C(c1ccccc1)c1cc(-c2ccccc2)c(-c2ccccc2)[nH]c(=O)c1=O ?
result: inactive

query: What is the recorded call for this compound in the test? O=C(Cc1ccccc1)N/N=C1\C(=O)Nc2ccccc21
result: inactive

query: What is the recorded call for this compound in the test? O=C(CCc1cccc(O)c1)NCCc1ccc(O)cc1
result: inactive

query: Please indicate how the test categorized CC1(C)CCC[C@]2(C)[C@H]3[C@H](C#N)c4cc(O)c(O)cc4O[C@@]3(C)CC[C@@H]12 .
result: inactive

query: How did this test come out for O=C(CN1CCCCC1)c1ccc2[nH]c(=O)oc2c1 ?
result: inactive

query: Hi, sorry to bother you, what did the test record for CCOC(=O)NC(Nc1ncn(C(NC(=O)OCC)(C(F)(F)F)C(F)(F)F)n1)(C(F)(F)F)C(F)(F)F ?
result: inactive

query: Each compound tested received a call. Report the one for COC(=O)C(=O)C(C(=O)C(N)=O)c1nc2ccc(C(=O)c3ccccc3)cc2nc1O (stereo not given) .
result: inactive

query: // return assay outcome for C/C(=C1/CCC/C(=C(/C)c2ccccc2)C1=O)c1ccccc1
result: inactive

query: Recorded test outcome, item C=C1C(=O)O[C@H]2C/C(C)=C/CC/C(C)=C/CC[C@@](C)(O)[C@@H](I)C[C@@H]12
result: inactive

---

- Test system: SK-MEL-28
- EXPERIMENT NOTES: NCI tumour cell line growth inhibition, 48 h
Active and inactive are the calls of the source. Rule as the data show it: active = GI50 up to about 1.1 µM and inactive = higher.
PARAMETER MEASURED: GI50

C=C1C(=O)OC2/C=C(\C)CC/C=C(\C)CC(OC(=O)/C(=C/CO)CO)[C@@H]12 (stereo partly specified)
15 µM (inactive)
CN1CCN(C(=S)N(C(=O)c2ccco2)c2ccccc2)CC1
> 100 µM (inactive)
O=C(/C=C/c1cc(F)ccc1F)OCCc1ccccc1
> 100 µM (inactive)
CNC(=O)c1cc2nc3ccccc3c(=O)n2c2ccccc12
> 10 µM (inactive)
N#C[C@H](c1nc2ccccc2s1)c1nc2ccccc2nc1Cl
> 100 µM (inactive)

query: For the compound O=[N+]([O-])c1ccc2[nH]nc(OCc3ccccc3Cl)c2c1 , give its reported GI50.
result: > 100 µM (inactive)

query: Indicate its recorded GI50; the compound in question is Cc1cc2c(C)n(Cc3ccccc3Cl)nc2c(C(=O)O)c1C
result: > 100 µM (inactive)

query: // fetch GI50 given entry Cc1nc(C(N)=S)sc1C(=O)CC(=O)C(=O)Nc1c(C(C)C)cccc1C(C)C
result: > 100 µM (inactive)

query: Return the recorded GI50 value; entry: CC(=O)c1cc2c(s1)C(=O)c1ccccc1C2=O
result: 8.05 µM (inactive)

query: Answer with the recorded GI50 for the compound listed here: O=C(c1cccnc1)N1N=C(c2ccccc2)CC1(O)c1cc(F)c(Cl)cc1Cl (stereo unspecified)
result: 25.1 µM (inactive)

query: # return recorded GI50 for input C[C@@H](CC(O)C(O)C(C)(C)O)C1CCC23CC12CCC1[C@@]2(C)CCC(=O)C(C)(C)C2CC(OC2OC(CO)C(O)C(O)C2O)[C@]13C (stereo partly specified)
result: > 10 µM (inactive)

Cited source: ChEMBL document CHEMBL1201862
